Data origin, for the record: PubChem BioAssay

Assay: COS7 lysate on small-molecule microarray, probe aHis, 635 nm (AID 1123);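 also: z-score combines 667nm fluorescence intensity with signal-to-noise per printed compound spot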
Settings: COS7 cell lysate, fluorescence, higher = more signal
Quantity Measured: composite z-score
Reply briefly: the number, and no unit.

Here's what some known entries look like.
Compound: CC(C)=NOC(C)CN1CCCc2nc(C)c(C)cc21 (stereo unspecified)
composite z-score: 1.31
--
Compound: C#CCCCON=C1C[C@@H](O)[C@@H](O)[C@@H]2[C@@H]3C(=O)N(C[C@@H]4CCCO4)C(=O)[C@@H]3CC[C@@H]12
composite z-score: 0.31

// composite z-score lookup, key: C[C@@H](c1ccccc1)N1C(=O)[C@H]2[C@H]3[C@H](O)[C@H](O)CC(=NOCc4ccccc4)[C@@H]3CC[C@H]2C1=O
0.043

// composite z-score lookup, key: O=C1[C@H]2[C@H]3[C@H](O)[C@H](O)CC(=NO[C@@H]4O[C@H](CO)[C@@H](O)[C@H](O)[C@H]4O)[C@@H]3CC[C@H]2C(=O)N1c1cccc(Oc2ccccc2)c1
0.109

// composite z-score lookup, key: CCN1C(=O)[C@H]2[C@@H]3C(=CC[C@H]2C1=O)C(=O)[C@H]1O[C@H]1[C@H]3O
0.141

// composite z-score lookup, key: O=C(NN=C1C[C@@H](O)[C@@H](O)[C@@H]2[C@@H]3C(=O)N(c4ccc(F)cc4F)C(=O)[C@@H]3CC[C@H]12)OCc1ccccc1
0.98

// composite z-score lookup, key: CCCCOC(OCCCC)C(O)CSc1ccc2ccccc2c1 (stereo unspecified)
0.125

// composite z-score lookup, key: CCOC(=O)[C@H](CC(C)C)NC(=O)CCC1CC(OC(=O)NCc2ccc3c(c2)OCO3)CC2(CCCC(COC(=O)NCCOC)O2)O1 (stereo partly specified)
0.57

// composite z-score lookup, key: C[C@@H](c1ccccc1)N1C(=O)[C@H]2[C@H]3[C@H](O)[C@H](O)CC(=NNC(=O)OCc4ccccc4)[C@@H]3CC[C@H]2C1=O
-0.231

// composite z-score lookup, key: O=C1C[C@@H](O)[C@@H](O)[C@@H]2[C@@H]3C(=O)N(Cc4ccccc4)C(=O)[C@@H]3CC[C@H]12
-0.0842

// composite z-score lookup, key: CCN1C(=O)[C@H]2[C@H]3[C@H](O)[C@H](O)CC(=NNC(=O)OCc4ccccc4)[C@H]3CC[C@H]2C1=O
0.0949

// composite z-score lookup, key: C[C@@H]1CC[C@H]2C(=O)OC(Cc3ccccc3)CN2[C@H]1c1ccc(Br)cc1 (stereo partly specified)
0.712

// composite z-score lookup, key: CCOC(=O)CCN1C(=O)[C@H]2[C@H]3[C@H](O)[C@H](O)CC(=NNC(=O)OCc4ccc(OC)cc4)[C@H]3CC[C@H]2C1=O
0.205

// composite z-score lookup, key: CC(=O)OC[C@H]1O[C@H](CCON=C(C)CCN2CCCc3nc(C)c(C)cc32)C=C[C@@H]1OC(C)=O
0.214

// composite z-score lookup, key: CON(C)C(=O)c1nnc2c(n1)[nH]c1ccccc12
0.128

// composite z-score lookup, key: CC(=O)OC[C@H]1O[C@H](CC=NO[C@@H](C)c2cc(-c3c(C)cc(C)cc3C)no2)C=C[C@@H]1OC(C)=O
-0.447

---

Assay: RPMI8226 myeloma cell viability, profiling panel, resazurin fluorescence, basal, 24 h, PK04 Diversity Set (AID 1180);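 also: RPMI8826 multiple myeloma cell line at 5000 cells per well; test concentration not given here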
Conditions: higher = more signal
Decide using z-score: a value greater than or equal to 0.2 is satisfied, a smaller one is not satisfied.

Determine whether measured z-score meets or exceeds 0.2 for CC(=O)OC[C@H]1O[C@H](C#CCCc2ccccc2)C=C[C@@H]1OC(C)=O
not satisfied

Determine whether measured z-score meets or exceeds 0.2 for CO[C@@H]1COC(=O)[C@H](CCSC)NC(=O)CC=C[C@@H](C)COC(=O)[C@@H]2CCCN2C(=O)CC=C[C@H]1C
satisfied

Determine whether measured z-score meets or exceeds 0.2 for CCOC(=O)[C@H](Cc1ccccc1)NC(=O)CCC1CC(OC(=O)NCCc2ccc(F)cc2)CC2(CCCC(COC(=O)NCc3cccc(C(F)(F)F)c3)O2)O1 (some centres undefined)
satisfied

Determine whether measured z-score meets or exceeds 0.2 for CC(=O)OC[C@H]1O[C@H](CC=NOC(C)CN2CCCc3nc(C)c(C)cc32)C=C[C@@H]1OC(C)=O (some centres undefined)
not satisfied

Determine whether measured z-score meets or exceeds 0.2 for CC(C)=CCCC(C)=CCON=C1C[C@@H](O)[C@@H](O)[C@@H]2[C@@H]3C(=O)N(Cc4ccc5c(c4)OCO5)C(=O)[C@@H]3CC[C@H]12
not satisfied

Determine whether measured z-score meets or exceeds 0.2 for CCOC(=O)CCN1C(=O)[C@H]2[C@@H]3C(=CC[C@H]2C1=O)C(=O)[C@H]1O[C@H]1[C@H]3O
not satisfied

---

Experiment: basal HepG2 mitochondrial membrane potential changes, profiling panel, cell-based, JC-1 fluorescence, 24 h, 100 nL compound (AID 1167); also: test concentration not given here
Details: higher = more signal
# maps each entry to its z-score
Reply briefly: the number, and no unit.

Here's what some known entries look like.
Molecule: COc1ccc(COC(=O)NN=C2C[C@@H](O)[C@@H](O)[C@@H]3[C@@H]4C(=O)N(Cc5ccc6c(c5)OCO6)C(=O)[C@@H]4CC[C@H]23)cc1
Quantity Measured: z-score
Observed Value: 0.301
--
Molecule: CON(C)C(=O)c1nnc2c(n1)[nH]c1ccccc12
Quantity Measured: z-score
Observed Value: -0.88
--
Molecule: COc1ccc(COC(=O)NN=C2C[C@@H](O)[C@@H](O)[C@@H]3[C@@H]4C(=O)N([C@@H](C)c5ccccc5)C(=O)[C@@H]4CC[C@@H]23)cc1
Quantity Measured: z-score
Observed Value: -0.697
--
Molecule: CO[C@@H]1COC(=O)[C@H](COCc2ccccc2)NC(=O)CC=C[C@@H](C)[C@H](OC)COC(=O)[C@@H](C)NC(=O)CC=C[C@H]1C
Quantity Measured: z-score
Observed Value: 0.648
--
Molecule: O=C1[C@H]2[C@H]3[C@H](O)[C@H](O)CC(=NO[C@@H]4O[C@H](CO)[C@@H](O)[C@H](O)[C@H]4O)[C@H]3CC[C@H]2C(=O)N1C[C@@H]1CCCO1
Quantity Measured: z-score
Observed Value: 0.607

// z-score lookup, key: COc1ccc(-c2cnnc(CCCn3ccnc3-c3ccccc3)n2)cc1
-1.5

// z-score lookup, key: CCN(CC)CC(O)CN1CCCCc2nc(C)c(C)cc21 (stereo unspecified)
0.68

// z-score lookup, key: COC(=O)[C@H](C)NC(=O)CCC1CC(OC(=O)NCc2cccc3ccccc23)CC2(CCCC(COC(=O)NCCOc3ccccc3)O2)O1 (stereo partly specified)
-0.234

// z-score lookup, key: CC(C)=CCCC(C)=CCON=C1[C@H]2CCn3c(=O)n(-c4ccccc4)c(=O)n3[C@H]2[C@H](O)[C@@H]2O[C@H]12
-1.07

// z-score lookup, key: COC(=O)[C@@H]1CC[C@H](C)[C@@H](c2ccc(Br)cc2)N1C[C@@H](O)CN=[N+]=[N-]
0.462

---

Experiment: small-molecule microarray binders of probe aShh, primary screen, biochemical, biotinylated probe, 635/667 nm fluorescence (AID 1114);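 also: probe is biotin-labelled aShh protein from a stem cell growth factor screen; measures binding of labelled protein to compounds printed on the slide; score merges feature fluorescence at 667 nm with signal-to-noise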
Settings: higher = more signal
Decide using composite z-score: a value greater than or equal to -0.01 is true (1), a smaller one is false (0).

Compound: COc1ccc(COC(=O)NN=C2C[C@@H](O)[C@@H](O)[C@@H]3[C@@H]4C(=O)N(Cc5ccccc5)C(=O)[C@@H]4CC[C@@H]23)cc1
Assigned Class: true (1)

Compound: CCOC(=O)CCN1C(=O)[C@H]2[C@H]3[C@H](O)[C@H](O)CC(=NOCC(C)C)[C@@H]3CC[C@H]2C1=O
Assigned Class: false (0)

Compound: CC(CCC(=O)OC[C@H]1O[C@H](C#Cc2ccccc2)C=C[C@@H]1Oc1ccc(C)cc1)=NOC(C)CN1CCCc2nc(C)c(C)cc21 (stereo not given in full)
Assigned Class: false (0)

Compound: CCN1C(=O)[C@H]2[C@H]3[C@H](O)[C@H](O)CC(=NOCC=C(C)CCC=C(C)C)[C@@H]3CC[C@H]2C1=O
Assigned Class: false (0)

Compound: O=C1C2=CC[C@H]3C(=O)N(Cc4ccccc4)C(=O)[C@H]3[C@H]2[C@H](O)[C@@H]2O[C@H]12
Assigned Class: false (0)

Compound: COC(=O)[C@@H]1CC[C@H](C)[C@@H](c2ccc(Br)cc2)N1C[C@@H](O)CN=[N+]=[N-]
Assigned Class: true (1)

Compound: COC(=O)CC=C[C@@H](C)[C@@H](C=NOC(C)CN1CCCCc2nc(C)c(C)cc21)NS(=O)(=O)c1ccc(C)cc1 (stereo not given in full)
Assigned Class: true (1)

Compound: CC(C)=CCCC(C)=CCON=C1C[C@@H](O)[C@@H](O)[C@@H]2[C@@H]3C(=O)N(c4cccc(Oc5ccccc5)c4)C(=O)[C@@H]3CC[C@H]12
Assigned Class: true (1)

Compound: COc1ccc(COC(=O)NN=C2C[C@@H](O)[C@@H](O)[C@@H]3[C@@H]4C(=O)N([C@@H](C)c5ccccc5)C(=O)[C@@H]4CC[C@@H]23)cc1
Assigned Class: true (1)

Compound: COc1cccc([C@H]2Oc3ccc(OC)cc3C(=NO[C@@H](C)c3cc(-c4c(C)cc(C)cc4C)no3)[C@@H]2O)c1
Assigned Class: false (0)

Determine whether measured composite z-score meets or exceeds -0.01 for C[C@@H]1CC[C@H]2C(=O)N3[C@@H](CC[C@@H](C)[C@@H]3c3ccc(Br)cc3)C(=O)N2[C@H]1c1ccc(Br)cc1
false (0)

Determine whether measured composite z-score meets or exceeds -0.01 for O=C1CCCC=C1C(O)C1CCCCC1 (stereo not given)
false (0)

Determine whether measured composite z-score meets or exceeds -0.01 for O=C1C[C@@H](O)[C@@H](O)[C@@H]2[C@@H]3C(=O)N(C4CCCCC4)C(=O)[C@@H]3CC[C@@H]12
true (1)

Determine whether measured composite z-score meets or exceeds -0.01 for C#CCCCON=C1C[C@@H](O)[C@@H](O)[C@@H]2[C@@H]3C(=O)N(C[C@@H]4CCCO4)C(=O)[C@@H]3CC[C@H]12
false (0)

Determine whether measured composite z-score meets or exceeds -0.01 for CO[C@@H]1COC(=O)[C@H](COCc2ccccc2)NC(=O)CC=C[C@@H](C)[C@H](OC)COC(=O)[C@@H](C)NC(=O)CC=C[C@H]1C
true (1)
